Test system: ENR+CD organoids (ISC to Paneth cell differentiation)
Assay: Primary screen: CCh-stimulated lysozyme secretion LYZ.S, 2.5-D 384-well ENR+CD organoid differentiation
Assay type: cell-based, mouse
Settings: primary screen, dose 0.40 uM
Known Dose.FC.LYZ.S of a selection of molecules
value.type: Dose.FC.LYZ.S

[[record]]
molecule = "COc1ccc2cccc(CCNC(C)=O)c2c1"
result = "0.132 log2 fold change"

[[record]]
molecule = "CN1CCc2cc3c(cc2[C@H]1[C@@H]1OC(=O)c2c1ccc1c2OCO1)OCO3 [(+)-Bicuculline]"
result = "0.034 log2 fold change"

[[record]]
molecule = "Cc1cc2c(C(C)C)c(O)c(O)c(C=O)c2c(O)c1-c1c(C)cc2c(C(C)C)c(O)c(O)c(C=O)c2c1O"
result = "−0.013 log2 fold change"


----------
Test system: ENR+CD organoids (ISC to Paneth cell differentiation)
Assay: Primary screen: CCh-stimulated lysozyme secretion LYZ.S, 2.5-D 384-well ENR+CD organoid differentiation
Type: cell-based, mouse
Settings: primary screen, dose 0.40 uM
Description: High-throughput screening.
value.type: Dose.FC.LYZ.S (log2 fold change)

[[record]]
compound = "O=C(c1ccc(F)cc1)N1CCC[C@H](c2nc(-c3ccc(F)cc3)no2)C1 [ADX-47273]"
result = 0.147

[[record]]
compound = "CNC(=O)c1cc(Oc2ccc(NC(=O)Nc3cc(C(C)(C)C)nn3-c3ccc4ncccc4c3)c(F)c2)ccn1 [DCC-2036 (Rebastinib)]"
result = 0.186

[[record]]
compound = "COc1ccc2c(c1)c(CC(=O)N1CCOCC1)c(C)n2C(=O)c1ccc(Cl)cc1 [BML-190]"
result = "−0.037"

[[record]]
compound = "Cc1cc(-c2ccc(CC(=O)Nc3ccc(-c4cccnc4)cc3)cc2)ccn1 [Wnt-C59 (C59)]"
result = "−0.281"


----------
System: ENR+CD organoids (ISC to Paneth cell differentiation)
Assay: Primary screen: basal (non-stimulated) lysozyme secretion LYZ.NS, 2.5-D 384-well ENR+CD organoid differentiation
Format: cell-based, mouse
Conditions: primary screen, dose 0.40 uM
Counter-ions that a name gives are not always drawn.
value.type: Z.LYZ.NS (standard z score)

[[record]]
molecule = "COc1cc(N2CCC(N)CC2)ccc1Nc1ncc(Cl)c(-c2c[nH]c3ccccc23)n1"
value_type = "Z.LYZ.NS (standard z score)"
result = "−1.652"

[[record]]
molecule = "COc1ccccc1Oc1c(NS(=O)(=O)c2ccc(C(C)(C)C)cc2)nc(-c2ncccn2)nc1OCCO [Bosentan Hydrate]"
value_type = "Z.LYZ.NS (standard z score)"
result = 0.589

[[record]]
molecule = "C[C@@H](c1ncncc1F)[C@](O)(Cn1cncn1)c1ccc(F)cc1F"
value_type = "Z.LYZ.NS (standard z score)"
result = 1.682

[[record]]
molecule = "CC(C)(C)Cn1c(N)nc2ccc(-c3[nH]c(C(C)(C)C)nc3-c3ccc(F)cc3)nc21"
value_type = "Z.LYZ.NS (standard z score)"
result = "−0.874"

[[record]]
molecule = "CN1C2CCCC1CC(NC(=O)c1nn(C)c3ccccc13)C2 (stereo not shown) [Granisetron HCl]"
value_type = "Z.LYZ.NS (standard z score)"
result = "−0.021"

[[record]]
molecule = "CC(C)N(CC[C@H](c1ccccc1)c1cc(CO)ccc1O)C(C)C [5-hydroxymethyl Tolterodine (PNU 200577, 5-HMT, 5-HM)]"
value_type = "Z.LYZ.NS (standard z score)"
result = 0.665

[[record]]
molecule = "c1cc(-c2cnn3cc(-c4ccc(N5CCNCC5)cc4)cnc23)c2cccnc2c1"
value_type = "Z.LYZ.NS (standard z score)"
result = 0.446

[[record]]
molecule = "O=c1cc(-c2ccc(O)cc2)oc2cc(O)cc(O)c12"
value_type = "Z.LYZ.NS (standard z score)"
result = 1.131

[[record]]
molecule = "COc1cc(N2CCC(N3CCN(C)CC3)CC2)ccc1Nc1ncc(Cl)c(Nc2ccccc2P(C)(C)=O)n1"
value_type = "Z.LYZ.NS (standard z score)"
result = "−0.541"

[[record]]
molecule = "COc1ccc2c(c1)C(=O)N(CCc1ccc(S(=O)(=O)NC(=O)NC3CCCCC3)cc1)C(=O)C2(C)C"
value_type = "Z.LYZ.NS (standard z score)"
result = 0.322

[[record]]
molecule = "COc1ccc2c(c1)c(CC(=O)N1CCOCC1)c(C)n2C(=O)c1ccc(Cl)cc1"
value_type = "Z.LYZ.NS (standard z score)"
result = "−0.152"

[[record]]
molecule = "CCCCNc1ncc(-c2ccc(CN3CCOCC3)cn2)c(NC2CCC(O)CC2)n1 (stereo not shown)"
value_type = "Z.LYZ.NS (standard z score)"
result = 0.587

[[record]]
molecule = "COc1nc(C)cnc1NS(=O)(=O)c1cccnc1-c1ccc(-c2nnco2)cc1 [Zibotentan (ZD4054)]"
value_type = "Z.LYZ.NS (standard z score)"
result = 0.474

[[record]]
molecule = "CCN(CC)C(=O)c1ccc(C2=CC3(CCNCC3)Oc3cccc(O)c32)cc1 [ADL5859 HCl]"
value_type = "Z.LYZ.NS (standard z score)"
result = 0.163

[[record]]
molecule = "COC1CCN(C(=O)c2cc(Cc3n[nH]c(=O)c4ccccc34)ccc2F)CC1"
value_type = "Z.LYZ.NS (standard z score)"
result = "−0.327"

[[record]]
molecule = "CCn1c(-c2nonc2N)nc2c(C#CC(C)(C)O)ncc(OC[C@H]3CCCNC3)c21"
value_type = "Z.LYZ.NS (standard z score)"
result = 0.409

[[record]]
molecule = "C[C@@H]1CCN(C(=O)CC#N)C[C@@H]1N(C)c1ncnc2[nH]ccc12"
value_type = "Z.LYZ.NS (standard z score)"
result = "−0.132"

[[record]]
molecule = "Clc1ccc(N/N=C(\\c2ccccc2)c2ccccn2)nc1"
value_type = "Z.LYZ.NS (standard z score)"
result = 0.264

[[record]]
molecule = "C[C@H](NC(=O)[C@@H](O)c1cc(F)cc(F)c1)C(=O)N[C@@H]1C(=O)N(C)c2ccccc2-c2ccccc21"
value_type = "Z.LYZ.NS (standard z score)"
result = "−0.434"


----------
System: ENR+CD organoids (ISC to Paneth cell differentiation)
Experiment: Primary screen: basal (non-stimulated) lysozyme secretion LYZ.NS, 2.5-D 384-well ENR+CD organoid differentiation
Assay type: cell-based, mouse
Conditions: primary screen, dose 2.00 uM, standard z score
Structures can show the parent of a compound that is named as a salt.
Known Z.LYZ.NS of a selection of compounds
value.type: Z.LYZ.NS

[[record]]
compound = "O=C(Nc1ccccc1-c1cn2c(CN3CCNCC3)csc2n1)c1cnc2ccccc2n1 [SRT1720]"
assayed_system = "ENR+CD organoids (ISC to Paneth cell differentiation)"
value_type = "Z.LYZ.NS"
result = 0.613

[[record]]
compound = "O=C(O)/C=C/c1ccc(Cn2ccnc2)cc1 [Ozagrel HCl]"
assayed_system = "ENR+CD organoids (ISC to Paneth cell differentiation)"
value_type = "Z.LYZ.NS"
result = 0.308

[[record]]
compound = "CCc1c(C(=O)NCCc2ccc(N3CCCCC3)cc2)[nH]c2ccc(Cl)cc12 [Org 27569]"
assayed_system = "ENR+CD organoids (ISC to Paneth cell differentiation)"
value_type = "Z.LYZ.NS"
result = 0.683

[[record]]
compound = "Nc1nc(CC(=O)Nc2ccc(CCNC[C@H](O)c3ccccc3)cc2)cs1 [Mirabegron]"
assayed_system = "ENR+CD organoids (ISC to Paneth cell differentiation)"
value_type = "Z.LYZ.NS"
result = "−0.301"

[[record]]
compound = "COc1cc2c(cc1OC)[C@@H]1Cc3ccc(OC)c(OC)c3CN1CC2 [Rotundine]"
assayed_system = "ENR+CD organoids (ISC to Paneth cell differentiation)"
value_type = "Z.LYZ.NS"
result = 0.623

[[record]]
compound = "CN(C)CCc1c[nH]c2ccc(Cn3cncn3)cc12 [Rizatriptan Benzoate]"
assayed_system = "ENR+CD organoids (ISC to Paneth cell differentiation)"
value_type = "Z.LYZ.NS"
result = 0.238

[[record]]
compound = "COc1ccc(C(=O)Nc2sc3c(c2C(N)=O)CCCC3)cc1OC [TCS 359]"
assayed_system = "ENR+CD organoids (ISC to Paneth cell differentiation)"
value_type = "Z.LYZ.NS"
result = 0.156

[[record]]
compound = "CC(=O)O[C@H]1C[C@@H]2CC[C@@H]3[C@H](CC[C@@]4(C)[C@H]3C[C@H]([N+]3(C)CCCCC3)[C@@H]4OC(C)=O)[C@@]2(C)C[C@@H]1[N+]1(C)CCCCC1.[Br-].[Br-] [Pancuronium dibromide]"
assayed_system = "ENR+CD organoids (ISC to Paneth cell differentiation)"
value_type = "Z.LYZ.NS"
result = 0.806

[[record]]
compound = "O=C(Nc1ccccc1Br)N[C@@H]1CCN(c2ccc(C(F)(F)F)cn2)C1 [SB705498]"
assayed_system = "ENR+CD organoids (ISC to Paneth cell differentiation)"
value_type = "Z.LYZ.NS"
result = "−0.008"

[[record]]
compound = "CO[C@H]1C[C@@H]2CC[C@@H](C)[C@@](O)(O2)C(=O)C(=O)N2CCCC[C@H]2C(=O)O[C@H]([C@H](C)C[C@@H]2CC[C@@H](OP(C)(C)=O)[C@H](OC)C2)CC(=O)[C@H](C)/C=C(\\C)[C@@H](O)[C@@H](OC)C(=O)[C@H](C)C[C@H](C)/C=C/C=C/C=C/1C [Ridaforolimus (Deforolimus, MK-8669)]"
assayed_system = "ENR+CD organoids (ISC to Paneth cell differentiation)"
value_type = "Z.LYZ.NS"
result = 0.646

[[record]]
compound = "O=C(Nc1ccncc1)c1cc([N+](=O)[O-])ccc1Cl [T0070907]"
assayed_system = "ENR+CD organoids (ISC to Paneth cell differentiation)"
value_type = "Z.LYZ.NS"
result = 0.373

[[record]]
compound = "CN(c1ncccc1CNc1nc(Nc2ccc3c(c2)CC(=O)N3)ncc1C(F)(F)F)S(C)(=O)=O [PF-562271]"
assayed_system = "ENR+CD organoids (ISC to Paneth cell differentiation)"
value_type = "Z.LYZ.NS"
result = "−2.034"

[[record]]
compound = "CCCc1nc2c(C)cc(-c3nc4ccccc4n3C)cc2n1Cc1ccc(-c2ccccc2C(=O)O)cc1 [Telmisartan]"
assayed_system = "ENR+CD organoids (ISC to Paneth cell differentiation)"
value_type = "Z.LYZ.NS"
result = 0.499

[[record]]
compound = "CC(C)(F)C[C@H](N[C@@H](c1ccc(-c2ccc(S(C)(=O)=O)cc2)cc1)C(F)(F)F)C(=O)NC1(C#N)CC1 [Odanacatib (MK-0822)]"
assayed_system = "ENR+CD organoids (ISC to Paneth cell differentiation)"
value_type = "Z.LYZ.NS"
result = 0.212

[[record]]
compound = "C1=N/C2=N/c3ccc(OCCN4CCCC4)c(c3)COC/C=C/COCc3cccc(c3)C(=C1)N2 [Pacritinib (SB1518)]"
assayed_system = "ENR+CD organoids (ISC to Paneth cell differentiation)"
value_type = "Z.LYZ.NS"
result = "−1.908"

[[record]]
compound = "Cc1cc(Nc2ccc(NC(=O)c3ccc(Nc4ccnc5ccccc45)cc3)cc2)nc(N)n1 [SGI-1027]"
assayed_system = "ENR+CD organoids (ISC to Paneth cell differentiation)"
value_type = "Z.LYZ.NS"
result = 1.123

[[record]]
compound = "COc1ccc(CNCc2cccc3ccccc23)cc1.Cl [ML133 HCl]"
assayed_system = "ENR+CD organoids (ISC to Paneth cell differentiation)"
value_type = "Z.LYZ.NS"
result = 0.633

[[record]]
compound = "Cc1nnc(C(=O)NC(C)(C)c2nc(C(=O)NCc3ccc(F)cc3)c(O)c(=O)n2C)o1 [Raltegravir (MK-0518)]"
assayed_system = "ENR+CD organoids (ISC to Paneth cell differentiation)"
value_type = "Z.LYZ.NS"
result = 0.254

[[record]]
compound = "C#CCN[C@@H]1CCc2ccccc21 [Rasagiline Mesylate]"
assayed_system = "ENR+CD organoids (ISC to Paneth cell differentiation)"
value_type = "Z.LYZ.NS"
result = 0.417

